This listing pairs molecules with measured IC50.
tested on: PANC-1 cells; experiment: cell viability assay in PANC-1 cells (compound alone, + 100 ng/ml TNFa, + 300 ng/ml TRAIL); type: cell-based; conditions: with 100 ng/ml TNFa; Tables 6-10; read-out: IC50 (μM) in cell viability assay in PANC-1 cells: Compound + 100 ng/ml TNFa
Quick reminder: number only, in µM, skip the unit.

Consider the reported IC50 for these molecules:
CN[C@@H](C)C(=O)NC(C(=O)N[C@@H](CCC(=O)NCc1cn([C@H]2C[C@@H](C(=O)N[C@@H]3CCCc4ccccc43)N(C(=O)[C@@H](NC(=O)[C@H](C)NC)C(C)(C)C)C2)nn1)C(=O)N[C@H](C)C(C)C)C(C)C (stereo partly shown) :: 0.679
CCC1(NC(=O)[C@@H]2C[C@H](NC(=O)c3cccc(C(=O)N[C@H]4C[C@@H](C(=O)NC5(CC)CCCc6ccccc65)N(C(=O)[C@@H](NC(=O)[C@H](C)NC)C(C)(C)C)C4)c3)CN2C(=O)[C@@H](NC(=O)[C@H](C)NC)C(C)(C)C)CCCc2ccccc21 (stereo partly shown) [Compound 50] :: 0.236
CN[C@@H](C)C(=O)N[C@@H](CCCCCC[C@H](NC(=O)[C@H](C)NC)C(=O)N1Cc2ccccc2C[C@H]1C(=O)N[C@H](C)c1ccccc1)C(=O)N1Cc2ccccc2C[C@H]1C(=O)N[C@H](C)c1ccccc1 :: 0.211

Here is another molecule to look at.
Problem: Give the measured IC50 of CN[C@@H](C)C(=O)N[C@H](C(=O)N1CCC[C@H]1CN1CCC[C@H]1C(c1ccccc1)c1ccccc1)[C@@H](C)OCC#CC#CCO[C@H](C)[C@H](NC(=O)[C@H](C)NC)C(=O)N1CCC[C@H]1CN1CCC[C@H]1C(c1ccccc1)c1ccccc1 .
Solution: 0.155
